- target.or.test.system: UniProt P08172
- Sequence (P08172 whole entry): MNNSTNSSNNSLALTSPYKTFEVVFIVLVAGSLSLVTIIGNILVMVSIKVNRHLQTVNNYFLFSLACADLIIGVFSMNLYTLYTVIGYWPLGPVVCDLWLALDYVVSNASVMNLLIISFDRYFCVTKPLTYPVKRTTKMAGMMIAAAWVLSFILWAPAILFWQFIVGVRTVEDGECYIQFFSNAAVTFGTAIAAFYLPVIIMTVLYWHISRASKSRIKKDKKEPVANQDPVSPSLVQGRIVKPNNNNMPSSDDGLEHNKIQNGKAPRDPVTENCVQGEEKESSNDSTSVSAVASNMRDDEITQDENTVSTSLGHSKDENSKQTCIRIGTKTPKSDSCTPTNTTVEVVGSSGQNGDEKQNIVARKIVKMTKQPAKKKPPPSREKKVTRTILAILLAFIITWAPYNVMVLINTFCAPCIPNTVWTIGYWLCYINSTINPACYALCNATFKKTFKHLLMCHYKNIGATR
- procedure.text: Alphascreen Surefire phospho-ERK1/2 functional assay, M2
- Type: cell-based
- condition.description: CHO, read-out: % Emax cf. ACh (M2), CHO cells stably expressing human M2, relative to ACh
readout.type: Emax (%)

compound="CCOC(=O)N1CCC2(CC(N3CCC(C(C)N(C(C)=O)C4CC4)CC3)C2)C1 (single isomer, unassigned) [2-13 Isomer 2]" readout_number=5
compound="CCOC(=O)N1CCC2(CC(N3CCC(N(CCF)Cc4cnco4)CC3)C2)C1 (single isomer, unassigned) [2-61 Isomer 2]" readout_number=52
compound="CCOC(=O)N1CCC2(CC(N3CCC(N(C(C)=O)C4CCC4)CC3)C2)C1 (single isomer, unassigned) [2-6 Isomer 2]" readout_number=7
compound="CCOC(=O)N1CC2(CCC(N3CCC(N(C(C)=O)C4CC4)CC3)C2)C1 (racemic) [3-1 Racemic]" readout_number=2
compound="CCOC(=O)N1CCC2(CC(N3CCC(N(CC(F)(F)F)C4CC4)CC3)C2)C1 (single isomer, unassigned) [2-48 Isomer 2]" readout_number=68
compound="CCOC(=O)N1CCC2(CC(N3CCC(N(C(=O)C(F)(F)F)C4CC4)CC3)C2)C1 (single isomer, unassigned) [2-4 Isomer 2]" readout_number=3
compound="CCOC(=O)N1CCC2(CC(N3CCC(N(CC)CC(F)(F)F)CC3)C2)C1 (single isomer, unassigned) [2-7 Isomer 2]" readout_number=16
compound="CCOC(=O)N1CCC2(CC(N3CCC(N(OC)C(C)=O)CC3)C2)C1 (single isomer, unassigned) [2-32 Isomer 2]" readout_number=9
compound="CCOC(=O)N1CCC2(CC(N3CCC(C(C)(C)N(CC)C(C)=O)CC3)C2)C1 (single isomer, unassigned) [2-64 Isomer 2]" readout_number=2
compound="CCOC(=O)N1CC2(CCC(N3CCC(N(CC)C(C)=O)CC3)C2)C1 (single isomer, unassigned) [3-3 Isomer 2]" readout_number=3
compound="CCOC(=O)N1CCC2(CC(N3CCC(N(CCOC)C4CC4)CC3)C2)C1 (single isomer, unassigned) [2-8 Isomer 2]" readout_number=6
compound="CCOC(=O)N1CCC2(CC(N3CCC(N(CC4CC4)C(C)=O)CC3)C2)C1 (single isomer, unassigned) [2-20 Isomer 2]" readout_number=60
compound="CCOC(=O)N1CCC2(CC(N3CCC(N(CC(F)F)C(C)=O)CC3)C2)C1 (single isomer, unassigned) [2-24 Isomer 2]" readout_number=5
compound="CCOC(=O)N1CCC2(CC(N3CCC(C(C)N(C(=O)CC)C4CC4)CC3)C2)C1 (single isomer, unassigned) [2-14 Isomer 2]" readout_number=12
compound="CCOC(=O)N1CCC2(CC(N3CCC(N(C(=O)OC)C(C)C)CC3)C2)C1 (single isomer, unassigned) [2-41 Isomer 2]" readout_number=57
compound="CCOC(=O)N1CCC2(CC(N3CCC(N(Cc4ccccc4)C(C)=O)CC3)C2)C1 (single isomer, unassigned) [2-35 Isomer 2]" readout_number=21
compound="CCOC(=O)N1CCC2(CC(N3CCC(N(CC(C)(C)OC)C(C)=O)CC3)C2)C1 (single isomer, unassigned) [2-29 Isomer 2]" readout_number=29
compound="CCOC(=O)N1CCC2(CC(N3CCC(N(CC)CCF)CC3)C2)C1 (single isomer, unassigned) [2-45 Isomer 2]" readout_number=9
compound="CCN(C(C)=O)C1CCN(C2CCC3(C2)CN(C(=O)OC)C3)CC1 (single isomer, unassigned) [3-2 Isomer 2]" readout_number=29
compound="CCOC(=O)N1CCC2(CC(N3CCC(N(CC(F)(F)F)C(=O)OC)CC3)C2)C1 (single isomer, unassigned) [2-42 Isomer 2]" readout_number=21
compound="CCOC(=O)N1CCC2(CC(N3CCC(N(C(=O)OC)C4COC4)CC3)C2)C1 (single isomer, unassigned) [2-47 Isomer 2]" readout_number=29
compound="CCOC(=O)N1CCC2(CC(N3CCC(N(CC4(OC)CCC4)C(C)=O)CC3)C2)C1 (single isomer, unassigned) [2-30 Isomer 2]" readout_number=42
compound="CCOC(=O)N1CCC2(CC(N3CCC(N(CCOC)CC(F)(F)F)CC3)C2)C1 (single isomer, unassigned) [2-52 Isomer 2]" readout_number=7
compound="CCOC(=O)N1CCC2(CC(N3CCC(N(C=O)CC)CC3)C2)C1 (single isomer, unassigned) [2-16 Isomer 2]" readout_number=5
compound="CCOC(=O)N1CCC2(CC(N3CCC(N(CC)C(=O)OC)CC3)C2)C1 (single isomer, unassigned) [2-39 Isomer 2]" readout_number=12
compound="CCOC(=O)N1CCC2(CC(N3CCC(N(Cc4ccon4)C4CC4)CC3)C2)C1 (single isomer, unassigned) [2-10 Isomer 2]" readout_number=11
